# targetSystem: Ecdysone receptor (Nezara viridula, UniProt E5L6Y0+E5L6Y1)
# Sequence (E5L6Y1 whole entry): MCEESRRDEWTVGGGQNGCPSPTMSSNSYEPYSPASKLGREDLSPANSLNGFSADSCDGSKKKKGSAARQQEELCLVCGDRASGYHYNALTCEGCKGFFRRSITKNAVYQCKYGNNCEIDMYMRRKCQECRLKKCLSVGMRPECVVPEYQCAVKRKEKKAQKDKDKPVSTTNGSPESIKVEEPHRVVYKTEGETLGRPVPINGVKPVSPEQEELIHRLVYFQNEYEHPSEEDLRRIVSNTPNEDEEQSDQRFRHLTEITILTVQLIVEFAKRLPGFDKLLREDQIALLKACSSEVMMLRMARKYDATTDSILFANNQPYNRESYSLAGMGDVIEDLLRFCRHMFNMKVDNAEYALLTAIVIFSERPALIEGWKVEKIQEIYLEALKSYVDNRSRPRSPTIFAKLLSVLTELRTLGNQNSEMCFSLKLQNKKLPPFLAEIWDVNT
# Sequence (E5L6Y0 whole entry): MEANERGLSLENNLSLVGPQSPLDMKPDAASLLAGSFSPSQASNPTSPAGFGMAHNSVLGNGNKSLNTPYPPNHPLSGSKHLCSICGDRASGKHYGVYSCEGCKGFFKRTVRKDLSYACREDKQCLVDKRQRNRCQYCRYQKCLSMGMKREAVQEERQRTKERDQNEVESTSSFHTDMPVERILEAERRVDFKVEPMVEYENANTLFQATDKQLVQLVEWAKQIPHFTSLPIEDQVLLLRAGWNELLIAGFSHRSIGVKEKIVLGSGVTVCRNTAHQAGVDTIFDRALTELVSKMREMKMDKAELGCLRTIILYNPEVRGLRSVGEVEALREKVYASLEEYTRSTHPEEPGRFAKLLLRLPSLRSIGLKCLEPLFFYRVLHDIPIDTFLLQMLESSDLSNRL
# experimentalDetails: Displacement of [3H]PonA from recombinant Nezara viridula EcR10
# Assay type: protein-complex assay
pKi: −log10 of the molar value.
As shown below, each of these compounds has a reported pKi value.
readoutName: pKi

compound="CC(C)(O)CC[C@@H](O)[C@](C)(O)[C@H]1CC[C@@]2(O)C3=CC(=O)[C@@H]4C[C@@H](O)[C@@H](O)C[C@]4(C)[C@H]3CC[C@]12C [20-HYDROXYECDYSONE]" readoutname=pKi obsvalue=5.60
compound="CC(CO)CC[C@@H](O)[C@](C)(O)[C@H]1CC[C@@]2(O)C3=CC(=O)[C@@H]4C[C@@H](O)[C@@H](O)C[C@]4(C)[C@H]3CC[C@]12C (stereo partly specified)" readoutname=pKi obsvalue=5.17
compound=C[C@H]([C@H](O)CCC(C)(C)O)[C@H]1CC[C@@]2(O)C3=CC(=O)[C@@H]4C[C@@H](O)[C@@H](O)C[C@]4(C)[C@H]3CC[C@]12C readoutname=pKi obsvalue=4.30
compound=CC(C)CC[C@@H](O)[C@](C)(O)[C@H]1CC[C@@]2(O)C3=CC(=O)[C@]4(O)C[C@@H](O)[C@@H](O)C[C@]4(C)[C@H]3[C@H](O)C[C@]12C readoutname=pKi obsvalue=7.00
compound=CC(C)CC[C@@H](O)[C@](C)(O)[C@H]1CC[C@@]2(O)C3=CC(=O)[C@@H]4C[C@@H](O)[C@@H](O)C[C@]4(C)[C@H]3CC[C@]12C readoutname=pKi obsvalue=6.70
compound="CCc1ccc(C(=O)NN(C(=O)c2cc(C)cc(C)c2)C(C)(C)C)cc1 [TEBUFENOZIDE]" readoutname=pKi obsvalue=4.77
